Attribution: patent US20250230253A1

target: T1, human CD40 (human, UniProt P25942 21-193); experiment: ELISA of subcloned hybridoma supernatants on hCD40, anti-mouse IgG-HRP detection
T1 construct: Recombinant protein coated for ELISA; The primary screen used 'soluble, His-tagged human CD40 (full-length and IgC2)'; also called huCD40; hCD40; not shown: His tag
T1 sequence (P25942 21-193 limits assumed): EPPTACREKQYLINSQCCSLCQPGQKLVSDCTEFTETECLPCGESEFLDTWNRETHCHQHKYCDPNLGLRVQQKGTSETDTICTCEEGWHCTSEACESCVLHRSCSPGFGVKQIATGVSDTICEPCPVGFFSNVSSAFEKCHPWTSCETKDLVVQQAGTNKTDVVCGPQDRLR
OBSERVATION TYPE: binding result

BINDER | OBSERVATION TYPE | READOUT VALUE
anti-CD40 antibody 41-E17 (antibody, V domains shown, Mouse hybridoma monoclonal antibody tested as hybridoma supernatant and detected with anti-mouse IgG-HRP) VH: DVQLVESGGGLVQPGGSRKLSCAASGFTFSTFGMHWVRQAPEKGLEWVAYISGGSSTIYYADTVKGRFTISRDNPKNTLFLQMTSLRSEDTAMYYCVRPYGSVHYAMDYWGQGTSVTVSS VL: DIQMTQTTSSLSASLGDRVTISCRASQDINNYLNWYQQKPDGTVKLLIYYTSRFHSGVPSRFSGSGSGTDYSLTISNLEQEDIATYFCQQGNTLPWTFGGGTKLDIK | binding result | binds
anti-CD40 antibody 41-I22 (antibody, V domains shown, Mouse hybridoma monoclonal antibody tested as hybridoma supernatant and detected with anti-mouse IgG-HRP) VH: EVQLQQSGAVLVKPGASVRLSCTASGFNIKDTYIHWVKQRPEQGLEWIGKIDPANGNTKFDPKFQGKATIAADTSSNTAYLQLSSLTSEDTAVYYCARDYYGTIFPYWYFDVWGAGTTVTVSS VL: QIVLTQSPAIMSASPGEKVTITCSASSSVSYMHWFQQKPGTSPKFWIYITSNLASGVPARFSGSGSGTSYSLTISRMEAEDAATYYCQQRSSYPLTFGAGTKLELK | binding result | binds
